test system: Oryza sativa (ORYSA); format: in vivo; settings: pre-emergence, 80 g/ha, crop plant compatibility, in comparison to untreated controls
Some molecules, each annotated with its measured Pre-emergence action against ORYSA in %.
Provide only the numeric value, understood in %.

### Prompt Could you please provide reported Pre-emergence action against ORYSA in % for O=C(O)COc1nn(-c2ccccn2)c(-c2ccnc(F)c2)c1Br ? Thanks!
### Response 0

====

Tested on: Zea mays (ZEAMX)
Assay type: in vivo
Details: pre-emergence, 80 g/ha, crop plant compatibility, in comparison to untreated controls
Source text: Seeds of monocotyledonous and dicotyledonous weed plants and crop plants are placed in plastic or organic planting pots and covered with soil. […] After about 3 weeks, the effect of the preparations is scored visually in comparison with untreated controls as percentages. […]
Some compounds, each annotated with its measured Pre-emergence action against ZEAMX in %.
Provide only the numeric value, understood in %.

Some solved entries appear below for comparison.
> print(dat)
                                   compound  observed.result
1  C[C@@H](Oc1nn(-c2ccnc(Cl)c2)c(-c2ccc(F)nc2)c1Br)C(=O)O [III-30]                0
2  COC(=O)CNC(=O)COc1nn(-c2ccccn2)c(-c2ccc(F)nc2)c1C1CC1 [Example I-70]                0
3  CCOC(=O)COc1nn(-c2ccccn2)c(-c2ccc(F)nc2)c1[N+](=O)[O-] [Example I-359]               10
4  COC(=O)CCOC(=O)COc1nn(-c2ncccc2F)c(-c2ccc(F)nc2)c1Cl [Example I-272]                0
5  COC(=O)CCOC(=O)COc1nn(-c2ccccn2)c(-c2ccc(Cl)nc2)c1Cl [Example I-243]               10

### Prompt Could you please provide reported Pre-emergence action against ZEAMX in % for COC(=O)CN(C)C(=O)COc1nn(-c2ccccn2)c(-c2ccc(F)nc2)c1Br [Example I-114] ? Thanks!
### Response 10

### Prompt Could you please provide reported Pre-emergence action against ZEAMX in % for COC(=O)[C@@H](C)Oc1nn(-c2ccc(F)cn2)c(-c2ccc(F)nc2)c1Br [Example I-11] ? Thanks!
### Response 10

### Prompt Could you please provide reported Pre-emergence action against ZEAMX in % for COC(=O)CCOC(=O)COc1nn(-c2ccnc(F)c2)c(-c2ccc(F)nc2)c1Br [III-27] ? Thanks!
### Response 10

### Prompt Could you please provide reported Pre-emergence action against ZEAMX in % for COC(=O)[C@@H](C)Oc1nn(-c2ncccc2F)c(-c2cccnc2)c1C#N [Example I-04] ? Thanks!
### Response 0

### Prompt Could you please provide reported Pre-emergence action against ZEAMX in % for COC(=O)CCOC(=O)COc1nn(-c2ccccn2)c(-c2ccc(F)nc2)c1Br [Example I-247] ? Thanks!
### Response 20

### Prompt Could you please provide reported Pre-emergence action against ZEAMX in % for O=C(COc1nn(-c2ccccn2)c(-c2ccc(F)nc2)c1Br)OCC1CCOC1 (stereo not shown) [Example I-90] ? Thanks!
### Response 20

### Prompt Could you please provide reported Pre-emergence action against ZEAMX in % for C[C@H](NC(=O)COc1nn(-c2ccnc(F)c2)c(-c2ccc(F)nc2)c1Br)C(=O)O [III-25] ? Thanks!
### Response 20

### Prompt Could you please provide reported Pre-emergence action against ZEAMX in % for CCOC(=O)COc1nn(-c2ncccc2OC)c(-c2ccc(F)nc2)c1Br [Example I-371] ? Thanks!
### Response 0
